- TEST: Concentration and elimination of ADP and its metabolites in liver, kidney, muscle, fat/skin after oral ^3H-ADP for 7 d
- Assay type: in vivo, broilers
- APPLIED CONDITIONS: broilers, liver, oral, 5 mg/kg b. w.
MEASUREMENT KIND: concentration at 0.25 d (ng/g)

1. COc1cc(Cc2cnc(N)nc2N)cc(OC)c1N
2. COc1cc(Cc2cnc(N)nc2N)cc(OC)c1N(C)C
3. CNc1c(OC)cc(Cc2cnc(N)nc2N)cc1OC
Input: // TODO: order the 3 compounds above by concentration at 0.25 d, descending Output spec: a listing of the labels in the requested order.
Output: 2, 3, 1

====

- TEST: Concentration and elimination of ADP and its metabolites in liver, kidney, muscle, fat/skin after oral ^3H-ADP for 7 d
- Format: in vivo, broilers
- APPLIED CONDITIONS: broiler chicken, kidney, oral, 5 mg/kg b.w.
MEASUREMENT KIND: concentration at 14 d (ng/g)
Reply with just the number (in ng/g).

So, `COc1cc(Cc2cnc(N)nc2N)cc(OC)c1N(C)C` ? Its concentration at 14 d was 40

====

- TEST: Concentration and elimination of ADP and its metabolites in liver, kidney, muscle, fat/skin after oral ^3H-ADP for 7 d
- Assay type: in vivo, swine
- APPLIED CONDITIONS: pig, po; swine fat, after 5 mg/kg b. w. for 7 days; read-out: t1/2 of the individual compound (converted)
MEASUREMENT KIND: half-life (h)
Record the value in h, omitting the unit from your answer.

Recorded half-life (compound COc1cc(Cc2cnc(N)nc2N)cc(OC)c1N(C)C [A0] ): 80.9

====

- TEST: Concentration and elimination of ADP and its metabolites in liver, kidney, muscle, fat/skin after oral ^3H-ADP for 7 d
- Format: in vivo, rats
- APPLIED CONDITIONS: rat, liver, oral, 5 mg/kg b. w.
MEASUREMENT KIND: concentration at 0.25 d (ng/g)

A. COc1cc(Cc2cnc(N)nc2N)cc(OC)c1N(C)C [A0]
B. COc1cc(Cc2cnc(N)nc2N)cc(OC)c1N [A2, N-didesmethyl-ADP]
C. CNc1c(OC)cc(Cc2cnc(N)nc2N)cc1OC [A1, N-monodesmethyl-ADP]
D. COc1cc(C(O)c2cnc(N)nc2N)cc(O)c1N(C)C (stereo not drawn) [A6, 3-OH-α-OH-ADP]
Input: Please list these compounds in decreasing order of concentration at 0.25 d. Form entry: labels listed in requested order.
Output: A, C, B, D
(A: 6140 ng/g, C: 1940 ng/g, B: 230 ng/g, D: 10 ng/g)

====

- TEST: Concentration and elimination of ADP and its metabolites in liver, kidney, muscle, fat/skin after oral ^3H-ADP for 7 d
- Type: in vivo, swine
- APPLIED CONDITIONS: swine, liver, oral, 5 mg/kg b.w.
MEASUREMENT KIND: concentration at 1 d (ng/g)

// field: concentration at 1 d; key: `CNc1c(OC)cc(Cc2cnc(N)nc2N)cc1OC` ; value = 1650

According to the records, this molecule `COc1cc(Cc2cnc(N)nc2N)cc(OC)c1N` displays concentration at 1 d of 840

Reported concentration at 1 d ( `COc1cc(Cc2cnc(N)nc2N)cc(OC)c1N(C)C` ) = 3010

P. CNc1c(O)cc(Cc2cnc(N)nc2N)cc1OC
Q. CNc1c(O)cc(C(O)c2cnc(N)nc2N)cc1OC (stereo not drawn)
Input: Quick check, higher concentration at 1 d between P and Q ? Give the label of your selection.
Output: P
(P: 450 ng/g, Q: 270 ng/g)

====

- TEST: Concentration and elimination of ADP and its metabolites in liver, kidney, muscle, fat/skin after oral ^3H-ADP for 7 d
- Type: in vivo, swine
- APPLIED CONDITIONS: swine, liver, oral, 5 mg/kg b.w.
MEASUREMENT KIND: concentration at 14 d (ng/g)
State just the number; it will be interpreted in ng/g.

According to the records, this compound `COc1cc(Cc2cnc(N)nc2N)cc(OC)c1N(C)C` displays concentration at 14 d of 240

====

- TEST: Concentration and elimination of ADP and its metabolites in liver, kidney, muscle, fat/skin after oral ^3H-ADP for 7 d
- Format: in vivo, carp
- APPLIED CONDITIONS: carp, muscle, oral, 5 mg/kg b.w.
MEASUREMENT KIND: concentration at 0.25 d (ng/g)

1. COc1cc(Cc2cnc(N)nc2N)cc(OC)c1N(C)C
2. CNc1c(OC)cc(Cc2cnc(N)nc2N)cc1OC
Input: Could you tell me which of 1 and 2 has the lower concentration at 0.25 d reading? Kindly give the label for the entry you pick.
Output: 2
(2: 300 ng/g, 1: 1960 ng/g)

====

- TEST: Concentration and elimination of ADP and its metabolites in liver, kidney, muscle, fat/skin after oral ^3H-ADP for 7 d
- Assay type: in vivo, swine
- APPLIED CONDITIONS: swine, muscle, oral, 5 mg/kg b.w.
MEASUREMENT KIND: concentration at 0.25 d (ng/g)

I. COc1cc(Cc2cnc(N)nc2N)cc(OC)c1N(C)C
II. CNc1c(OC)cc(Cc2cnc(N)nc2N)cc1OC
III. COc1cc(Cc2cnc(N)nc2N)cc(OC)c1N
Input: Please list these compounds in decreasing order of concentration at 0.25 d. Your answer should be the labels, listed in the requested order.
Output: I, II, III

====

- TEST: Concentration and elimination of ADP and its metabolites in liver, kidney, muscle, fat/skin after oral ^3H-ADP for 7 d
- Format: in vivo, swine
- APPLIED CONDITIONS: swine, muscle, oral, 5 mg/kg b.w.
MEASUREMENT KIND: concentration at 1 d (ng/g)

Documented concentration at 1 d of `COc1cc(Cc2cnc(N)nc2N)cc(OC)c1N` : 50

I. CNc1c(OC)cc(Cc2cnc(N)nc2N)cc1OC
II. COc1cc(Cc2cnc(N)nc2N)cc(OC)c1N(C)C
Input: Given the two records I and II , choose the one whose concentration at 1 d value is lower. Respond using the label that marks the chosen record.
Output: I
(I: 150 ng/g, II: 890 ng/g)

====

- TEST: Concentration and elimination of ADP and its metabolites in liver, kidney, muscle, fat/skin after oral ^3H-ADP for 7 d
- Type: in vivo, broilers
- APPLIED CONDITIONS: broiler chicken, kidney, oral, 5 mg/kg b.w.
MEASUREMENT KIND: concentration at 3 d (ng/g)

I. COc1cc(Cc2cnc(N)nc2N)cc(OC)c1N(C)C
II. CNc1c(OC)cc(Cc2cnc(N)nc2N)cc1OC
Input: Pick the one with the larger concentration at 3 d: I vs II Indicate your choice by writing its label.
Output: I

====

- TEST: Concentration and elimination of ADP and its metabolites in liver, kidney, muscle, fat/skin after oral ^3H-ADP for 7 d
- Assay type: in vivo, rats
- APPLIED CONDITIONS: rat, muscle, oral, 5 mg/kg b.w.
MEASUREMENT KIND: concentration at 1 d (ng/g)

I. COc1cc(Cc2cnc(N)nc2N)cc(OC)c1N(C)C
II. CNc1c(OC)cc(Cc2cnc(N)nc2N)cc1OC
Input: I need your help: which of the pair I , II has higher concentration at 1 d? Select an item and report its label.
Output: I

====

- TEST: Concentration and elimination of ADP and its metabolites in liver, kidney, muscle, fat/skin after oral ^3H-ADP for 7 d
- Assay type: in vivo, broilers
- APPLIED CONDITIONS: broilers, muscle, oral, 5 mg/kg b. w.
- Experimental: A total of 36 animals from each species (swine n = 24) were randomly assigned to six equal treatment groups and administered a single daily dose of ^3 H-ADP at 5 mg/kg b. w. (0.1 Ci/g) through oral gavage for 7 consecutive days. […] The total radioactivity levels in each sample were determined through LSC. The samples extracted from the plasma, bile, and tissues of the liver, kidney, muscle, and fat/skin were analyzed through LC/MS-IT-TOF and v. […]
MEASUREMENT KIND: concentration at 3 d (ng/g)
Express it in ng/g; write the number only.

Item: `COc1cc(Cc2cnc(N)nc2N)cc(OC)c1N(C)C` | concentration at 3 d: 220

====

- TEST: Concentration and elimination of ADP and its metabolites in liver, kidney, muscle, fat/skin after oral ^3H-ADP for 7 d
- Assay type: in vivo, swine
- APPLIED CONDITIONS: pig, po; swine muscle, after 5 mg/kg b. w. for 7 days; read-out: t1/2 of the individual compound (converted)
MEASUREMENT KIND: half-life (h)

A. COc1cc(Cc2cnc(N)nc2N)cc(OC)c1N(C)C
B. CNc1c(OC)cc(Cc2cnc(N)nc2N)cc1OC
Input: Decide: A or B , by lowest recorded half-life. Lab log: write the label of the selected item as the result.
Output: B
